Assay summary: protection of differentiated C2C12 cells from simvastatin – single point, plate reader, primary screen (AID 602340);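 also: myotubes were challenged with 10 µM simvastatin during compound exposure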
Experimental parameters: C2C12 myotubes + simvastatin, ATP luminescence, 48 h; at 7.49 µM; active compounds read high; scaled: DMSO 0, geranylgeraniol control 100
About 2,600 (0.79%) of roughly 330,000 compounds were called active. For the sample, actives were picked, then their nearest neighbours and some compounds at random.
Quantity measured: rescue of ATP level (%)
Kindly provide the numeric value in % only, without the unit symbol.

// below: answered molecules
C[C@H](NC(=O)C[C@@H]1CC[C@@H](NC(=O)Cc2ccccn2)[C@@H](CO)O1)c1ccccc1
1.25
Cc1cc(C)cc(NS(=O)(=O)Cc2ccccc2)c1
1.96
COc1ccc(OC)c(-c2csc(-c3cccs3)n2)c1
-1.11
Cc1nn(Cc2ccccc2Cl)c(C)c1NC(=O)Cn1nc([N+](=O)[O-])c(Cl)c1C
13.1

// returns reported rescue of ATP level for input "CCCN1CCN(C(=O)CCCNC(=O)c2ccc(Cl)cc2)CC1" -1.82

// returns reported rescue of ATP level for input "C[C@@H]1CN([C@H](C)CO)C(=O)c2cccc(NS(=O)(=O)c3ccc(F)cc3)c2O[C@@H]1CN(C)C(=O)Nc1ccc(F)cc1" 3.07

// returns reported rescue of ATP level for input "Cc1c(Cl)c([N+](=O)[O-])nn1Cc1ccc(C(=O)N/N=C\c2cc(Cl)ccc2O)o1" 74.2

// returns reported rescue of ATP level for input "C[C@@H]1CN([C@@H](C)CO)C(=O)c2cccc(NC(=O)Nc3ccc(F)cc3)c2O[C@H]1CN(C)C(=O)Nc1ccc(F)cc1" 18.2

// returns reported rescue of ATP level for input "CC(C)OCCCNC(=O)CN1C(=O)/C(=C/c2ccccc2F)Oc2ccccc21" -11.5

###

Assay summary: protection of differentiated C2C12 cells from simvastatin – single point, plate reader, primary screen (AID 602340);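 also: myotubes were challenged with 10 µM simvastatin during compound exposure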
Experimental parameters: C2C12 myotubes + simvastatin, ATP luminescence, 48 h; at 7.49 µM; active compounds read high; scaled: DMSO 0, geranylgeraniol control 100
Among all 330,000 compounds or so, about 2,600 (0.79%) were called active. Shown is part of a subset that was picked to be rich in actives.
Entries annotated with measured rescue of ATP level

// below: answered molecules
Cc1cc(=O)n2c3c(cccc13)CCC2
0.243% (inactive)
CN1C(=O)c2cc(NS(C)(=O)=O)ccc2OC[C@@H]2O[C@@H](CC(=O)NCc3ccc(-c4ccccc4)cc3)CC[C@H]21
21.8% (inactive)
CCCNC(=O)C[C@H]1CC[C@@H]2[C@H](COC[C@H](O)CN2CC2CCCCC2)O1
-0.493% (inactive)

// returns reported rescue of ATP level for input "COc1ccc(S(=O)(=O)Nc2cccc3c2O[C@@H](CN(C)C(=O)Nc2ccccc2)[C@@H](C)CN([C@H](C)CO)C3=O)cc1" -38.3% (inactive)

###

Assay summary: protection of differentiated C2C12 cells from simvastatin – single point, plate reader, primary screen (AID 602340);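 also: myotubes were challenged with 10 µM simvastatin during compound exposure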
Experimental parameters: C2C12 myotubes + simvastatin, ATP luminescence, 48 h; at 7.49 µM; scaled: DMSO 0, geranylgeraniol control 100
About 2,600 (0.79%) of roughly 330,000 compounds were called active.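 Rule for the calls: active = mean ATP rescue above about 67%, or every replicate alone reaching that limit (limit read from the data, passing the limit was not always enough); inconclusive = no clear call, values can overlap the other calls; inactive = mean under the limit and some replicate under it.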 Shown is part of a subset that was picked to be rich in actives.
Outcome (select one): 1 (active), -1 (inactive)

Recorded results for 7 molecules are shown here.
C[C@H]1CN([C@@H](C)CO)C(=O)c2cccc(NC(=O)Nc3ccc(C(F)(F)F)cc3)c2O[C@H]1CN(C)C(=O)NC1CCCCC1
-1
C[C@H](CO)N1C[C@H](C)[C@@H](CN(C)C(=O)Nc2ccccc2)Oc2ccc(N(C)C)cc2C1=O
-1
CN1c2ccccc2-c2nc3ccccc3n2C1c1ccco1 (stereo not drawn)
1
C[C@H]1CN([C@@H](C)CO)C(=O)c2cccc(NC(=O)Nc3ccc(C(F)(F)F)cc3)c2O[C@H]1CN(C)CC1CCCCC1
1
CC(C)NC(=O)N(C)C[C@@H]1Oc2ccc(N(C)C)cc2C(=O)N([C@@H](C)CO)C[C@H]1C
-1
Cc1cc(NCc2ccco2)n2c(nc3ccccc32)c1C#N
-1
C[C@@H]1CN([C@H](C)CO)C(=O)c2cccc(NS(=O)(=O)c3ccc(Cl)cc3)c2O[C@H]1CN(C)C(=O)NC1CCCCC1
-1

Query molecule follows.
Tell me the assay call for "CC(C)NC(=O)N(C)C[C@H]1Oc2ccc(N(C)C)cc2C(=O)N([C@@H](C)CO)C[C@H]1C" please. 1

###

Assay summary: protection of differentiated C2C12 cells from simvastatin – single point, plate reader, primary screen (AID 602340);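 also: myotubes were challenged with 10 µM simvastatin during compound exposure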
Experimental parameters: C2C12 myotubes + simvastatin, ATP luminescence, 48 h; at 7.49 µM; active compounds read high; scaled: DMSO 0, geranylgeraniol control 100
Screen size: about 330,000 compounds; about 2,600 (0.79%) were called active. The entries come from a sample that favours actives as a whole.
Entries annotated with measured rescue of ATP level
Kindly provide the numeric value in % only, without the unit symbol.

// below: answered compounds
CS(=O)(=O)Nc1ccc2c(c1)[C@H]1C[C@H](CC(=O)NCc3ccc(Cl)cc3)O[C@@H](CO)[C@H]1O2
-4.85
COCC(=O)Nc1ccc2c(c1)[C@H]1C[C@H](CC(=O)NCc3cccnc3)O[C@H](CO)[C@H]1O2
-1.76
Cn1c(SCC(=O)Nc2ccc(Cl)cc2)nc(O)cc1=O
21.6
COc1ccc(C(=O)Nc2ccc3c(c2)OC[C@H](C)N(C(C)=O)C[C@@H](C)[C@@H](OC)CN(C)C3=O)cc1
-4.78
CCCNC(=O)Nc1ccc2c(c1)C(=O)N(C)C[C@@H](OC)[C@@H](C)CN(C)[C@@H](C)CO2
0.886

// returns reported rescue of ATP level for input "O=C(Nc1ccccc1F)N[C@@H]1CC[C@H](CCNC(=O)C2CC2)O[C@@H]1CO" 3.31

// returns reported rescue of ATP level for input "O=C(C[C@H]1CC[C@H]2[C@@H](COC[C@@H](O)CN2CC2CCOCC2)O1)NCc1ccc(Cl)cc1" 7.95

###

Assay summary: protection of differentiated C2C12 cells from simvastatin – single point, plate reader, primary screen (AID 602340);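 also: myotubes were challenged with 10 µM simvastatin during compound exposure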
Experimental parameters: C2C12 myotubes + simvastatin, ATP luminescence, 48 h; at 7.49 µM; active compounds read high; scaled: DMSO 0, geranylgeraniol control 100
Out of some 330,000 compounds screened, about 2,600 (0.79%) were called active. The sample as a whole holds a higher share of actives than the screen did.
Quantity measured: rescue of ATP level (%)
Kindly provide the numeric value in % only, without the unit symbol.

// below: answered compounds
COc1ccc(NC(=O)CNC(=O)Cc2ccccc2)cc1OC
-3.67
CCCOc1ccc(Cn2c(O)cc(=O)[nH]c2=O)cc1
2.27
Cc1noc(C)c1S(=O)(=O)N(C)C[C@@H]1Oc2c(NS(=O)(=O)c3cn(C)cn3)cccc2C(=O)N([C@@H](C)CO)C[C@H]1C
5.29
CCC(=O)Nc1ccc(C(=O)NNC(=O)c2ccc(Cl)cc2)cc1
-2.53

// returns reported rescue of ATP level for input "Cn1c(N)c(C(=O)COC(=O)c2ccc3ccccc3c2)c(=O)n(C)c1=O" -2.95

// returns reported rescue of ATP level for input "COc1cccc(C(=O)Nc2ccc3c(c2)OC[C@H](C)N(C(C)=O)C[C@@H](C)[C@@H](OC)CN(C)C3=O)c1" 5.61

###

Assay summary: protection of differentiated C2C12 cells from simvastatin – single point, plate reader, primary screen (AID 602340);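 also: myotubes were challenged with 10 µM simvastatin during compound exposure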
Experimental parameters: C2C12 myotubes + simvastatin, ATP luminescence, 48 h; at 7.49 µM; active compounds read high; scaled: DMSO 0, geranylgeraniol control 100
The whole screen tested about 330,000 compounds, of which about 2,600 (0.79%) were called active. Many of the other results were omitted from the sample, so actives are more common in it than they were.
Threshold check on rescue of ATP level: at or above 20% gives yes, strictly below gives no.

Recorded results for 2 compounds are shown here.
CCc1ccc(CNC(=O)C2CCCN(c3nc4ccccc4o3)C2)cc1 (stereo unspecified)
yes
Cc1ccc(C2(c3ccc(C)cc3)NC(=O)N(Cc3c(C)noc3C)C2=O)cc1
yes

Record "COc1ccccc1CNC(=O)C1CCN(c2nc3ccccc3o2)CC1" ; criterion: rescue of ATP level no lower than 20%. Met? no

Record "CC1(C)Cc2cccc(OCC(=O)NCc3ccccc3)c2O1" ; criterion: rescue of ATP level no lower than 20%. Met? no

###

Assay summary: protection of differentiated C2C12 cells from simvastatin – single point, plate reader, primary screen (AID 602340);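 also: myotubes were challenged with 10 µM simvastatin during compound exposure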
Experimental parameters: C2C12 myotubes + simvastatin, ATP luminescence, 48 h; at 7.49 µM; scaled: DMSO 0, geranylgeraniol control 100
Screen size: about 330,000 compounds; about 2,600 (0.79%) were called active.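 How the source made its calls: active means mean ATP rescue above about 67%, or every replicate alone reaching that limit (limit read from the data, passing the limit was not always enough); inconclusive means no clear call, values can overlap the other calls; inactive means mean under the limit and some replicate under it.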 This is one part of a sample in which actives are shown more often than they occur.
Outcome (select one): 1.0 = active, 0.0 = inactive

Cc1noc(C)c1NC(=O)N[C@@H]1CC[C@H](CCNC(=O)C2CCC2)O[C@@H]1CO
0.0

Tell me the assay call for "C[C@H]1CN([C@@H](C)CO)C(=O)Cc2cc(NS(=O)(=O)c3ccc(F)cc3)ccc2O[C@H]1CN(C)Cc1ccc(C(F)(F)F)cc1" please. 0.0

Tell me the assay call for O=C(O)CC(Cn1cnnn1)c1ccccc1 (stereo not drawn) please. 0.0

Tell me the assay call for CCOc1ccc(C(CC(=O)O)n2cnnn2)cc1OC (stereo not drawn) please. 0.0

Tell me the assay call for "C[C@H]1CN([C@@H](C)CO)C(=O)c2cc(-c3cccc(C(=O)N(C)C)c3)cnc2O[C@H]1CN(C)S(=O)(=O)c1ccccc1" please. 0.0

Tell me the assay call for "C[C@@H]1CN([C@@H](C)CO)C(=O)Cc2cc(NS(=O)(=O)c3ccc(Cl)cc3)ccc2O[C@H]1CN(C)Cc1ccc(C(F)(F)F)cc1" please. 1.0

Tell me the assay call for "CN1c2ccc(-c3ccccc3)cc2[C@@H]2[C@@H](CCN2C(=O)NC2CCCC2)[C@H]1CO" please. 0.0

Tell me the assay call for "C[C@H]1CN([C@@H](C)CO)C(=O)c2cc(NC(=O)C3CCCCC3)ccc2O[C@H]1CN(C)C(=O)Nc1ccccc1" please. 0.0
